# target.entity: T1, VV B5 monomer protein (Wyeth Vaccinia strain B5 with C-terminal AVI tag and HIS6 tag) (Vaccinia virus, Wyeth strain, UniProt O57254 18-279)
# T1 construct: also called B5 protein; VV B5 protein
# protocol.text: BLI (Octet), antibody on AHC sensor, B5 monomer analyte
Kd by entry:
The response must be a number in nM with no trailing unit.

A048-H2L4 (antibody, V domains shown) VH: EVQLLESGGGLVQPGGSLRLSCAASGFSFSSSYYMCWVRQAPGKGLEWIACIYTSSGSAYYANWAKGRFTISRTSSTTVTLQMNSLRAEDTAVYYCVRNAVGSSYYLYLWGQGTLVTVSS VL: AQVLTQSPSSLSASVGDRVTITCQASQSVAGNNYLSWYQQKPGKVPKLLIYSVSTLASGVPSRFSGSGSGTDFTLTISSLQPEDVATYYCQGYYNDGIWAFGQGTKVEIK; 6.23

# ---- query binder ----
stdin: Give the reported value of Kd for this record: A048-H2L3 (antibody, V domains shown) VH: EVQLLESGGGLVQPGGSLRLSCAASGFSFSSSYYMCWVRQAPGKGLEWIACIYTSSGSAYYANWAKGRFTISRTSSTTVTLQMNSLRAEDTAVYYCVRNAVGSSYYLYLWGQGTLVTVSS VL: DIQMTQSPSSLSASVGDRVTITCQASQSVAGNNYLSWYQQKPGKVPKLLIYSVSTLASGVPSRFSGSGSGTDFTLTISSLQPEDVATYYCQGYYNDGIWAFGQGTKVEIK
stdout: 9.23

The measurements presented in this section are drawn from patent US20240309070A1.
